target: T1, Cynomolgus CD3 on Cyno CD3+ Jurkat cells (cynomolgus, UniProt Q95LI5 22-198); assay: cell binding cCD3, fold over background
T1 construct: whole, on cells; CD3 on cells; also called cCD3
T1 sequence (Q95LI5 22-198): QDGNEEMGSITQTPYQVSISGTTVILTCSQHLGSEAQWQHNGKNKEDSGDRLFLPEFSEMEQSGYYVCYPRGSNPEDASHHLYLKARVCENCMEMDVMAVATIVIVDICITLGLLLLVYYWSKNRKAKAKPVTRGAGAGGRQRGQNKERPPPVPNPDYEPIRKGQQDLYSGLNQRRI
binders and their reported Cell Binding cCD3 (FOB)
// note: answer is a bare numeric in FOB

- Binder: "ADI-45981 (antibody, V domains shown, also called Ab18) VH: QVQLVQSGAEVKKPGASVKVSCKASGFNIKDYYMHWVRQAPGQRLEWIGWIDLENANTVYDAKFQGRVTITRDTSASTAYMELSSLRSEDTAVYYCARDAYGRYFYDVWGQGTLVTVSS VL: DIVMTQSPDSLAVSLGERATINCKSSQSLLNARTGKNYLAWYQQKPGQPPKLLIYWASMRESGVPDRFSGSRSGTDFTLTISSLQAEDVAVYYCSQSYFRRTFGGGTKVEIK"
  Unit of measure: "FOB"
  Quantitative result: 78

Now take the following binder into account.
Q: If you can, please state the reported Cell Binding cCD3 (FOB) value of ADI-45977 (antibody, V domains shown, also called Ab14) VH: QVQLVQSGAEVKKPGASVKVSCKASGFNIKDYYMHWVRQAPGQRLEWIGWIDLENANTVYDAKLQGRVTITRDTSASTAYMELSSLGSEDTAVYYCARDAYGRYFYDVWGQGTLVTVSS VL: DIVMTQSPDSLAVSLGERATINCKSSQSLLNARTGKNYLAWYQQKPGQPPKLLIYWASTRESGVPDRFSGSGSGTDFTLTISSLQAEDVAVYYCTQSYFRRTFGGGTKVEIK .
Result: 159
